I'd be grateful if you could share measured inhibition at 1 µM for these entries.
target: σ1-receptor (Cavia porcellus, UniProt Q60492); construct: guinea pig brains were homogenized; from tissue; host or cells: guinea pig brain membranes; assay: Sigma-1 receptor binding, [3H](+)-pentazocine, brain membranes; parameters: species or system guinea pig; details: 2.5 h; tested compound at 10^-6 M; [3H](+)-pentazocine 0.5 nM; read-out: binding sigma-1 (*) % of radioactively labeled compound replaced by the tested compound
Sequence (Q60492 whole entry): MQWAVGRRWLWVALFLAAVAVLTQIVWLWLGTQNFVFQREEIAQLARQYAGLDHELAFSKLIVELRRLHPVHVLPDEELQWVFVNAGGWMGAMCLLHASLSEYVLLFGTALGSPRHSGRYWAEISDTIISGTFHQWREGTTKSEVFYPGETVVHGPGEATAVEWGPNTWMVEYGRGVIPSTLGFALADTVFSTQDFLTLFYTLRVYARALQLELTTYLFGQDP
Express your answer as a number followed by its unit.

Inquiry: Supply recorded inhibition at 1 µM for CN(CCC1CCCc2c1cnn2-c1ccc(F)cc1)Cc1ccccc1 (stereo not drawn) [Example 69] here.
Reply text: 103%

Inquiry: Supply recorded inhibition at 1 µM for C(/CN1CCCC(c2ccccc2)C1)=C1/CCCc2c1cnn2-c1ccccc1 (stereo not drawn) [Example 23] here.
Reply text: 99.4%

Inquiry: Supply recorded inhibition at 1 µM for O=C(O)C(=O)O.c1ccc(-n2ncc3c2CCCC3CCN2CCCCC2)cc1 (stereo not drawn) [Example 14, oxalate] here.
Reply text: 99.8%

Inquiry: Supply recorded inhibition at 1 µM for C(/CN1CCOCC1)=C1/CCCc2c1cnn2-c1ccccc1 [Example 5] here.
Reply text: 94%

Inquiry: Supply recorded inhibition at 1 µM for CN(CCC1CCCc2c1cnn2-c1ccccc1)Cc1ccccc1 (stereo not drawn) [Example 54] here.
Reply text: 105%

Inquiry: Supply recorded inhibition at 1 µM for O=C(O)C(=O)O.c1ccc(-n2ncc3c2CCC3CCN2CCOCC2)cc1 (stereo not drawn) [Example 31, oxalate] here.
Reply text: 101%

Inquiry: Supply recorded inhibition at 1 µM for C[C@@H]1CN(CCC2CCCc3c2cnn3-c2ccc(F)cc2)C[C@H](C)O1.O=C(O)C(=O)O (stereo partly drawn) [Example 68, oxalate] here.
Reply text: 98%

Inquiry: Supply recorded inhibition at 1 µM for c1ccc(-n2ncc3c2CCC3CCN2CCCCC2)cc1 (stereo not drawn) [Example 37] here.
Reply text: 102%

Inquiry: Supply recorded inhibition at 1 µM for Cn1ncc2c1CCCC2CCN1Cc2ccccc2C1.O=C(O)C(=O)O (stereo not drawn) [Example 60, oxalate] here.
Reply text: 104%

* * *

I'd be grateful if you could share measured melting point for these entries.
Counter-ions that a name gives are not always drawn.

Inquiry: Supply recorded melting point for O=C(O)C(=O)O.c1ccc(-n2ncc3c2CCCC3CCN2Cc3ccccc3C2)cc1 (stereo not drawn) [Example 56] here.
Reply text: 195.7 to 200 °C

Inquiry: Supply recorded melting point for c1ccc(-n2ncc3c2CCCC3CCN2CCOCC2)cc1 (stereo not drawn) (as salt: oxalate) [Example 2] here.
Reply text: 150 to 151 °C

Inquiry: Supply recorded melting point for c1ccc(C2CCN(CCC3CCc4c3cnn4-c3ccccc3)CC2)cc1 (stereo not drawn) [Example 36] here.
Reply text: 83 to 86 °C

Inquiry: Supply recorded melting point for O=C(O)C(=O)O.c1ccc(-n2ncc3c2CCC3CCN2CCOCC2)cc1 (stereo not drawn) [Example 31] here.
Reply text: 159 to 161.8 °C

Inquiry: Supply recorded melting point for C(/CN1CCC(c2ccccc2)C1)=C1/CCCc2c1cnn2-c1ccccc1.O=C(O)C(=O)O (stereo not drawn) here.
Reply text: 178 to 181 °C

Inquiry: Supply recorded melting point for C(/CN1Cc2ccccc2C1)=C1/CCCc2c1cnn2-c1ccccc1 here.
Reply text: 130 to 131 °C

Inquiry: Supply recorded melting point for O=C(O)C(=O)O.c1ccc(N2CCN(CCC3CCCc4c3cnn4-c3ccccc3)CC2)cc1 (stereo not drawn) here.
Reply text: 177 to 180 °C

Inquiry: Supply recorded melting point for Fc1ccc(-n2ncc3c2CCCC3CCN2Cc3ccccc3C2)cc1.O=C(O)C(=O)O (stereo not drawn) here.
Reply text: 176 to 179 °C

Inquiry: Supply recorded melting point for C[C@@H]1CN(CCC2CCCc3c2cnn3-c2ccccc2)C[C@H](C)O1.O=C(O)C(=O)O (stereo partly drawn) [Example 49] here.
Reply text: 186.6 to 190 °C

Inquiry: Supply recorded melting point for C[C@@H]1CN(CCC2CCCc3c2cnn3-c2ccc(F)cc2)C[C@H](C)O1.O=C(O)C(=O)O (stereo partly drawn) [Example 68] here.
Reply text: 164 to 169 °C

Inquiry: Supply recorded melting point for Clc1ccc(-n2ncc3c2CCCC3CCN2CCC(c3ccccc3)CC2)cc1Cl (stereo not drawn) (as salt: oxalate) [Example 4] here.
Reply text: 133 to 134 °C

Inquiry: Supply recorded melting point for O=C(O)C(=O)O.c1ccc(-n2ncc3c2CCCC3CCN2CCC3(CC2)OCc2ccccc23)cc1 (stereo not drawn) [Example 12] here.
Reply text: 133 to 135 °C

Inquiry: Supply recorded melting point for O=C(O)C(=O)O.c1ccc(-n2ncc3c2CCC3CCN2CCc3ccccc3C2)cc1 (stereo not drawn) [Example 44] here.
Reply text: 200.5 to 203 °C

Inquiry: Supply recorded melting point for Clc1ccc(-n2ncc3c2CCCC3CCN2CCOCC2)cc1Cl.O=C(O)C(=O)O (stereo not drawn) [Example 7] here.
Reply text: 148 to 149.8 °C

Inquiry: Supply recorded melting point for O=C(O)C(=O)O.c1ccc(-n2ncc3c2CCC3CCN2CCC3(CC2)OCc2ccccc23)cc1 (stereo not drawn) [Example 51] here.
Reply text: 170.5 to 173.6 °C

Inquiry: Supply recorded melting point for CN(CCC1CCCc2c1cnn2C)Cc1ccccc1.O=C(O)C(=O)O (stereo not drawn) [Example 62] here.
Reply text: 140.2 to 141.7 °C

Inquiry: Supply recorded melting point for C[C@@H]1CN(CCC2CCc3c2cnn3-c2ccccc2)C[C@H](C)O1.O=C(O)C(=O)O (stereo partly drawn) [Example 47] here.
Reply text: 160.2 to 161.5 °C

Inquiry: Supply recorded melting point for O=C(O)C(=O)O.c1ccc(CN2CCN(CCC3CCc4c3cnn4-c3ccccc3)CC2)cc1 (stereo not drawn) here.
Reply text: 215 to 218 °C

Inquiry: Supply recorded melting point for Cn1ncc2c1CCCC2CCN1CCOCC1.O=C(O)C(=O)O (stereo not drawn) here.
Reply text: 137.7 to 139.3 °C

Inquiry: Supply recorded melting point for Cn1ncc2c1CCCC2CCN1Cc2ccccc2C1.O=C(O)C(=O)O (stereo not drawn) [Example 60] here.
Reply text: 150 to 151 °C

Inquiry: Supply recorded melting point for O=C(O)C(=O)O.c1ccc(-n2ncc3c2CCCC3CCN2CCCCC2)cc1 (stereo not drawn) [Example 14] here.
Reply text: 185 to 188 °C

Inquiry: Supply recorded melting point for c1ccc(CN2CCN(CCC3CCCc4c3cnn4-c3ccccc3)CC2)cc1 (stereo not drawn) [Example 10] here.
Reply text: 98 to 101 °C

Inquiry: Supply recorded melting point for O=C(O)C(=O)O.c1ccc(-n2ncc3c2CCC3CCN2Cc3ccccc3C2)cc1 (stereo not drawn) [Example 35] here.
Reply text: 195 to 197 °C

Inquiry: Supply recorded melting point for C(/CN1CCc2ccccc2C1)=C1/CCCc2c1cnn2-c1ccccc1.O=C(O)C(=O)O here.
Reply text: 217 to 218 °C

Inquiry: Supply recorded melting point for C(/CN1CCC2(CC1)OCc1ccccc12)=C1/CCCc2c1cnn2-c1ccccc1.O=C(O)C(=O)O [Example 19] here.
Reply text: 155 to 157 °C

Inquiry: Supply recorded melting point for C(/CN1CCOCC1)=C1/CCCc2c1cnn2-c1ccccc1 [Example 5] here.
Reply text: 114 to 116 °C

Inquiry: Supply recorded melting point for C(/CN1CCCC(c2ccccc2)C1)=C1/CCCc2c1cnn2-c1ccccc1 (stereo not drawn) [Example 23] here.
Reply text: 136 to 138 °C

Inquiry: Supply recorded melting point for O=C(O)C(=O)O.c1ccc(-n2ncc3c2CCCC3CCN2CCOCC2)cc1 (single isomer, unassigned; (+)) [Example 74] here.
Reply text: 175 to 176 °C

Inquiry: Supply recorded melting point for O=C(O)C(=O)O.c1ccc(C2CCN(CCC3CCCc4c3cnn4-c3ccccc3)CC2)cc1 (stereo not drawn) [Example 9] here.
Reply text: 124 to 125 °C

Inquiry: Supply recorded melting point for C(/CN1CCCCCC1)=C1/CCCc2c1cnn2-c1ccccc1.O=C(O)C(=O)O [Example 16] here.
Reply text: 171 to 173 °C

Inquiry: Supply recorded melting point for Fc1ccc(-n2ncc3c2CCCC3CCN2CCC(c3ccccc3)CC2)cc1 (stereo not drawn) [Example 72] here.
Reply text: 93 to 94.5 °C

Inquiry: Supply recorded melting point for Fc1ccc(-n2ncc3c2CCCC3CCN2CCOCC2)cc1.O=C(O)C(=O)O (stereo not drawn) [Example 66] here.
Reply text: 148 to 151 °C

Inquiry: Supply recorded melting point for c1ccc(-n2ncc3c2CCC3CCn2ccnc2)cc1 (stereo not drawn) [Example 45] here.
Reply text: 102.9 to 105.7 °C
